Data credit: ChEMBL document CHEMBL4033647

- Tested on: A-431
- measurementProtocol: Cell cycle arrest in human A431 cells assessed as accumulation at G2/M phase at 10 uM after 24 hrs by propidium iodide staining based flow cytometric analysis (reference value: 26.23%)
- Format: functional
Exercise: for every item that follows, state its recorded Activity.
Please format your answer as a value with the unit trailing.

Example entries and their recorded answers appear below.
{"sampleSmiles": "O=C1C=CC(=O)c2c1ccc1c2c(=O)[nH]c2ccccc21", "reported": "24.83%"}
{"sampleSmiles": "O=C1C=CC(=O)c2c1ccc1c2c(=O)oc2cc(Cl)ccc21", "reported": "28.92%"}
{"sampleSmiles": "O=C1C=CC(=O)c2c1ccc1c2c(=O)[nH]c2ccc(Cl)cc21", "reported": "26.65%"}

// below: Activity requested for another molecule
Exercise: Any idea what Activity was measured for O=C1C=CC(=O)c2c1ccc1c2c(=O)oc2ccccc21 ?
Key: 29.39%
